// reported IC50 for each item listed
molecular target: plasmin (Homo sapiens, UniProt P00747)
Sequence (P00747 581-810 limits assumed): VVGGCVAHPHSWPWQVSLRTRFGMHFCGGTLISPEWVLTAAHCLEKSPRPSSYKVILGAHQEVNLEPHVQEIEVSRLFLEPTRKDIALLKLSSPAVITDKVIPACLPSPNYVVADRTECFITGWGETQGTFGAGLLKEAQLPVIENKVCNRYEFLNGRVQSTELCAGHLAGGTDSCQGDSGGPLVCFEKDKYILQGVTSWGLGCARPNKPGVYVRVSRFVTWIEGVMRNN
Sequence (P00747 97-580 partner limits assumed): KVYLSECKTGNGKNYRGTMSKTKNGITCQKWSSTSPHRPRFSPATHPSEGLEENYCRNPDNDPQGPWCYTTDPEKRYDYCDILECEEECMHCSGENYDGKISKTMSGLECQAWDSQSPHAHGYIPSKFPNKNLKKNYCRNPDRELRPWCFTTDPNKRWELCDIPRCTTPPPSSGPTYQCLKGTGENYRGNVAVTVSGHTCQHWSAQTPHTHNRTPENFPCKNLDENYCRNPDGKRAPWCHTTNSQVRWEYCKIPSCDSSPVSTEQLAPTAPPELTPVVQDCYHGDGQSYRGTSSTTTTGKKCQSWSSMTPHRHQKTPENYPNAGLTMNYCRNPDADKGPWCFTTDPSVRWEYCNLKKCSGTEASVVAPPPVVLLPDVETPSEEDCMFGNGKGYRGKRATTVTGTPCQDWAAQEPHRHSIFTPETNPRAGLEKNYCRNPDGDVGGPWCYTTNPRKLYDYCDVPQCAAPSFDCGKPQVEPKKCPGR
Endpoint label: IC50 (µM)

{"Molecule": "N=C(N)NCCCCCC(=O)Oc1ccc2cc(C(=N)N)ccc2c1 [Compound No. 18, 6-amidino-2-naphthyl ε-guanidinocaproate]", "Test result": 30}
{"Molecule": "N=C(N)c1ccc2cc(OC(=O)C3CC3)ccc2c1", "Test result": 4}
{"Molecule": "CC(=O)Oc1ccc2cc(C(=N)N)ccc2c1 [Compound No. 1, 6-amidino-2-naphthyl acetate]", "Test result": 200}
{"Molecule": "CC(C)CC(=O)Oc1ccc2cc(C(=N)N)ccc2c1 [Compound No. 3, 6-amidino-2-naphthyl isovalerate]", "Test result": 30}

====

pIC50: −log10 of the molar value.
Target or system thrombin (Bos taurus, UniProt P00735): recorded pIC50 listed per item.

{"Compound": "CC(C)CC(=O)Oc1ccc2cc(C(=N)N)ccc2c1 [Compound No. 3, 6-amidino-2-naphthyl isovalerate]", "pIC50": 4.10}
{"Compound": "CCCCCC(=O)Oc1ccc2cc(C(=N)N)ccc2c1 [compound 4, 6-amidino-2-naphthyl caproate]", "pIC50": 2.52}
{"Compound": "CCCC(=O)Oc1ccc2cc(C(=N)N)ccc2c1 [Compound No. 2, 6-amidino-2-naphthyl n-butyrate]", "pIC50": 4.70}
{"Compound": "CC(=O)Oc1ccc2cc(C(=N)N)ccc2c1 [Compound No. 1, 6-amidino-2-naphthyl acetate]", "pIC50": 3.40}
{"Compound": "N=C(N)c1ccc2cc(OC(=O)C3CC3)ccc2c1", "pIC50": 5.52}
{"Compound": "N=C(N)c1ccc2cc(OC(=O)C3CCCCC3)ccc2c1", "pIC50": 4.40}
{"Compound": "N=C(N)c1ccc2cc(OC(=O)CCCCCNC(=O)OCc3ccccc3)ccc2c1", "pIC50": 4.00}

====

molecular target: kallikrein; assay: Enzyme inhibition, TAME hydrolysis, kallikrein (method of Muramatsu et al.); details: read-out: ID50, kallikrein
pIC50: −log10 of the molar value.
Endpoint label: pIC50

{"Molecule": "CCCC(=O)Oc1ccc2cc(C(=N)N)ccc2c1 [Compound No. 2, 6-amidino-2-naphthyl n-butyrate]", "Op": "=", "Test result": 3.15}
{"Molecule": "CCCCCCCCCC(=O)Oc1ccc2cc(C(=N)N)ccc2c1 [Compound No. 5, 6-amidino-2-naphthyl caprate]", "Op": "=", "Test result": 4.00}
{"Molecule": "N=C(N)c1ccc2cc(OC(=O)C3CC3)ccc2c1 [Compound No. 10]", "Op": "=", "Test result": 4.00}
{"Molecule": "CCCCCC(=O)Oc1ccc2cc(C(=N)N)ccc2c1 [compound 4, 6-amidino-2-naphthyl caproate]", "Op": "=", "Test result": 3.52}
{"Molecule": "N=C(N)c1ccc2cc(OC(=O)C3CCCCC3)ccc2c1 [Compound No. 12]", "Op": "<", "Test result": 5.00}

====

Target: Cls (Homo sapiens)
Sequence (P09871 438-688 limits assumed): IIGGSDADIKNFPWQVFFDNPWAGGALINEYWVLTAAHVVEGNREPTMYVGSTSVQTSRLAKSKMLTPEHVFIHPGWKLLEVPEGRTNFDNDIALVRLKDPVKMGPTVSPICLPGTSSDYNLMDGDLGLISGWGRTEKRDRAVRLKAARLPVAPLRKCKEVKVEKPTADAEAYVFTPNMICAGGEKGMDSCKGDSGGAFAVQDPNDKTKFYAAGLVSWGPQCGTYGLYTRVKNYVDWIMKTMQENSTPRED
Sequence (P09871 16-437 partner limits assumed): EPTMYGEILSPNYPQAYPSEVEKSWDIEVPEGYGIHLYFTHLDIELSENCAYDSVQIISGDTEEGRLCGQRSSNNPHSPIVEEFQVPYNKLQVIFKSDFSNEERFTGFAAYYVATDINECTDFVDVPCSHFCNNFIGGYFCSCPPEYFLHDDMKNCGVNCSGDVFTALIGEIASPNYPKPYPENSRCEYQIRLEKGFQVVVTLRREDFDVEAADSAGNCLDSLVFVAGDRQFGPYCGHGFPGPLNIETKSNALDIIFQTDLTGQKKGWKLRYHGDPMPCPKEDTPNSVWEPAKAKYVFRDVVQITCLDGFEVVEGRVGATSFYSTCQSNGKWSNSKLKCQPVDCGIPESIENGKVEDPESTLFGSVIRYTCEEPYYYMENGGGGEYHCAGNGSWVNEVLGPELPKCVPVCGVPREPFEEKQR
pIC50: −log10 of the molar value.

{"Compound": "N=C(N)c1ccc2cc(OC(=O)CCCCCNC(=O)OCc3ccccc3)ccc2c1 [Compound No. 16]", "pIC50": 5.40}
{"Compound": "N=C(N)c1ccc2cc(OC(=O)C3CC3)ccc2c1 [Compound No. 10]", "pIC50": 6.52}
{"Compound": "N=C(N)c1ccc2cc(OC(=O)[C@H]3CC[C@H](CNC(=O)OCc4ccccc4)CC3)ccc2c1 [compound 19]", "pIC50": 6.40}
{"Compound": "CC(=O)Oc1ccc2cc(C(=N)N)ccc2c1 [Compound No. 1, 6-amidino-2-naphthyl acetate]", "pIC50": 4.70}
{"Compound": "N=C(N)c1ccc2cc(OC(=O)[C@H]3CC[C@H](CN)CC3)ccc2c1 [Compound No. 20]", "pIC50": 5.40}
{"Compound": "CCCCCC(=O)Oc1ccc2cc(C(=N)N)ccc2c1 [compound 4, 6-amidino-2-naphthyl caproate]", "pIC50": 5.40}
{"Compound": "CCCC(=O)Oc1ccc2cc(C(=N)N)ccc2c1 [Compound No. 2, 6-amidino-2-naphthyl n-butyrate]", "pIC50": 4.70}
{"Compound": "N=C(N)c1ccc2cc(OC(=O)C3CCCCC3)ccc2c1 [Compound No. 12]", "pIC50": 5.52}
{"Compound": "N=C(N)NCCCCCC(=O)Oc1ccc2cc(C(=N)N)ccc2c1 [Compound No. 18, 6-amidino-2-naphthyl ε-guanidinocaproate]", "pIC50": 5.05}
{"Compound": "CC(C)CC(=O)Oc1ccc2cc(C(=N)N)ccc2c1 [Compound No. 3, 6-amidino-2-naphthyl isovalerate]", "pIC50": 5.70}

====

molecular target: trypsin (Bos taurus, UniProt P00760); assay: Enzyme inhibition, TAME hydrolysis, trypsin (method of Muramatsu et al.); type: biochemical; conditions: hydrolysis of TAME; read-out: ID50, trypsin
Sequence (P00760 24-246): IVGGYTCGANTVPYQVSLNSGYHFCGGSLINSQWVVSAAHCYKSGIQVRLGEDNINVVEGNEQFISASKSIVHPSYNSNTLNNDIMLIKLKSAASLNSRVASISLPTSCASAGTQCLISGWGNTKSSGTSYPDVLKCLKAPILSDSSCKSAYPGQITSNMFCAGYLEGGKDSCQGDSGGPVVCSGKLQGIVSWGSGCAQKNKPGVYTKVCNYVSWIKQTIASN
pIC50: −log10 of the molar value.
Endpoint label: pIC50

{"Molecule": "CCCCCCCCCC(=O)Oc1ccc2cc(C(=N)N)ccc2c1 [Compound No. 5, 6-amidino-2-naphthyl caprate]", "Test result": 5.22}
{"Molecule": "CCCC(=O)Oc1ccc2cc(C(=N)N)ccc2c1 [Compound No. 2, 6-amidino-2-naphthyl n-butyrate]", "Test result": 4.70}
{"Molecule": "CC(=O)Oc1ccc2cc(C(=N)N)ccc2c1 [Compound No. 1, 6-amidino-2-naphthyl acetate]", "Test result": 4.10}
{"Molecule": "CC(C)CC(=O)Oc1ccc2cc(C(=N)N)ccc2c1 [Compound No. 3, 6-amidino-2-naphthyl isovalerate]", "Test result": 4.52}
{"Molecule": "N=C(N)c1ccc2cc(OC(=O)CCCCCNC(=O)OCc3ccccc3)ccc2c1 [Compound No. 16]", "Test result": 5.00}
{"Molecule": "N=C(N)c1ccc2cc(OC(=O)C3CCCCC3)ccc2c1 [Compound No. 12]", "Test result": 4.70}
{"Molecule": "N=C(N)c1ccc2cc(OC(=O)CCCCCN)ccc2c1 [Compound No. 17, 6-amidino-2-naphthyl ε-aminocaproate]", "Test result": 3.70}

====

Each entry below carries its measured IC50, system: trypsin (Bos taurus).

{"Compound": "CCCCCC(=O)Oc1ccc2cc(C(=N)N)ccc2c1 [compound 4, 6-amidino-2-naphthyl caproate]", "IC50 / µM": 20}
{"Compound": "N=C(N)c1ccc2cc(OC(=O)[C@H]3CC[C@H](CNC(=O)OCc4ccccc4)CC3)ccc2c1 [compound 19]", "IC50 / µM": 1}
{"Compound": "N=C(N)c1ccc2cc(OC(=O)C3CC3)ccc2c1 [Compound No. 10]", "IC50 / µM": 2}
{"Compound": "N=C(N)NCCCCCC(=O)Oc1ccc2cc(C(=N)N)ccc2c1 [Compound No. 18, 6-amidino-2-naphthyl ε-guanidinocaproate]", "IC50 / µM": 10}

====

// IC50 lookup, one value per entry
molecular target: thrombin (Bos taurus)
Endpoint label: IC50 (µM)

{"Compound": "N=C(N)c1ccc2cc(OC(=O)CCCCCN)ccc2c1 [Compound No. 17, 6-amidino-2-naphthyl ε-aminocaproate]", "Op": "=", "Test result": 600}
{"Compound": "N=C(N)NCCCCCC(=O)Oc1ccc2cc(C(=N)N)ccc2c1 [Compound No. 18, 6-amidino-2-naphthyl ε-guanidinocaproate]", "Op": "=", "Test result": 40}
{"Compound": "N=C(N)c1ccc2cc(OC(=O)[C@H]3CC[C@H](CNC(=O)OCc4ccccc4)CC3)ccc2c1 [compound 19]", "Op": "=", "Test result": 30}
{"Compound": "N=C(N)c1ccc2cc(OC(=O)[C@H]3CC[C@H](CN)CC3)ccc2c1 [Compound No. 20]", "Op": ">", "Test result": 10}
